Biological target: T1, recombinant human GREM1 (hGREM1-His; C-terminal 10His tagged, R&D, #5190-GR) (human, UniProt O60565 25-184)
T1 construct: range 25-184; also called recombinant human GREM1 with a C-terminal decahistidine tag
T1 sequence: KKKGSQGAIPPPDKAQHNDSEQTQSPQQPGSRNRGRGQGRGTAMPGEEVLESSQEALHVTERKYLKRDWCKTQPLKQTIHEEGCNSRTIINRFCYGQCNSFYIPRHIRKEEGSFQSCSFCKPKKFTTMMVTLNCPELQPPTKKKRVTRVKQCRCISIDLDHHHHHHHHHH
Experiment: BLI Octet, mAb captured, 100 nM GREM1 + 5 uM heparin;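 further: octet Red96 biolayer interferometry at 25 °C, antibodies captured on anti-human IgG Fc biosensors, pH 7.4 HEPES buffer with 0.1 mg/mL BSA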
quantity.kind: Binding Signal with 300 sec Association (nm)

[[record]]
binder = "H4H2780N (antibody, human IgG4, V domains shown, H4H prefix = human IgG4 Fc) VH: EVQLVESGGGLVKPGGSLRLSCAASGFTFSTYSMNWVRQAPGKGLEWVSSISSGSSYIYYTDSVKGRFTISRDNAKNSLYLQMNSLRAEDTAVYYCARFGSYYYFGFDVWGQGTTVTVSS VL: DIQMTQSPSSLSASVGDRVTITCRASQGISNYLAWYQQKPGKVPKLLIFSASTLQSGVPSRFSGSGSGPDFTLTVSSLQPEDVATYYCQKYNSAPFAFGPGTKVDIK"
quantity_kind = "Binding Signal with 300 sec Association"
recorded_number = 0.58


Sourced from patent US20200157194A1
